- target: Adenosine receptor A2a (Homo sapiens, UniProt P29274)
- Sequence (P29274 whole entry): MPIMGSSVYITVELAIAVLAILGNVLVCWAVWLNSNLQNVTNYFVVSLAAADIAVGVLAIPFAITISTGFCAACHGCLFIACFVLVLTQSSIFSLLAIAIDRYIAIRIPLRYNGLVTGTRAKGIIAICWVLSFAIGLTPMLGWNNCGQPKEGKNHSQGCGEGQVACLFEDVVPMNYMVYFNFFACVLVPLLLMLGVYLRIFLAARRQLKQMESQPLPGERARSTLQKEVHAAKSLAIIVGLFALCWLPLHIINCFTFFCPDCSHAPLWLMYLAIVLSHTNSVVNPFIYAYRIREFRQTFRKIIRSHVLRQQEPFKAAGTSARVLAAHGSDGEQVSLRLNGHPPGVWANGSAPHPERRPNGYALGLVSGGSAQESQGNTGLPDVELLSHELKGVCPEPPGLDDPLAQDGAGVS
- test.protocol: Antagonist activity at human A2A adenosine receptor expressed in CHO cells assessed as inhibition of CGS21680-stimulated cAMP level after 30 mins by Alphascreen assay
- Assay type: functional, cell-based
pIC50: −log10 of the molar value.
readout.label: pIC50

1. COc1ccccc1CNc1nc(N)c2nc(-c3ccccc3)sc2n1: 8.12
2. Nc1nc(NCc2cccs2)nc2sc(-c3ccccc3)nc12: 7.37
3. Cc1nc2c(N)nc(NCCc3cccs3)nc2s1: 6.99
4. COc1cccc(CNc2nc(N)c3nc(-c4ccccc4)sc3n2)c1: 7.18

----------
- target: Adenosine receptor A2a (Homo sapiens)
- test.protocol: Inverse agonist activity at human A2A adenosine receptor expressed in CHO cells assessed as inhibition of basal cAMP level after 30 mins by Alphascreen assay
- Type: functional, cell-based
pIC50: −log10 of the molar value.
Property: pIC50; scope: individual molecules
readout.label: pIC50

1) COc1cccc(CNc2nc(N)c3nc(-c4ccccc4)sc3n2)c1: 7.32
2) COc1ccccc1CNc1nc(N)c2nc(-c3ccccc3)sc2n1: 8.27
3) Nc1nc(NCc2cccs2)nc2sc(-c3ccccc3)nc12: 7.44
4) Cc1nc2c(N)nc(NCCc3cccs3)nc2s1: 7.08

----------
- target: Adenosine receptor A3 (Homo sapiens, UniProt P0DMS8)
- Sequence (P0DMS8 whole entry): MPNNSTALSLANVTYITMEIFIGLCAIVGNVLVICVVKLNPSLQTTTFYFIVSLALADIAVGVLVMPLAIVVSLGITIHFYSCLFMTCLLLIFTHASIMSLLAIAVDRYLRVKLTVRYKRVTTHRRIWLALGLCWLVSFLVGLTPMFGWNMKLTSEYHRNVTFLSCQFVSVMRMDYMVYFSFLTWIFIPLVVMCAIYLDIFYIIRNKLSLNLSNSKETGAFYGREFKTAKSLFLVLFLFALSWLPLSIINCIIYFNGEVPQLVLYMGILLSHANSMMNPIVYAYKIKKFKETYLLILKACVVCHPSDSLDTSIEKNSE
- test.protocol: Displacement of [125I]-ABMECA from human A3 adenosine receptor expressed in CHO cell membranes after 120 mins by scintillation counting method
pKi: −log10 of the molar value.
Property: pKi; scope: individual compounds
readout.label: pKi

1. Cc1nc2c(N)nc(NCCc3cccs3)nc2s1: 5.82
2. Nc1nc(NCCc2ccc(O)cc2)nc2sc(-c3ccccc3)nc12: 5.79

----------
Property: pKi; scope: individual compounds
- target: Adenosine receptor A2a (Homo sapiens, UniProt P29274)
pKi: −log10 of the molar value.
readout.label: pKi

1) COc1ccccc1CNc1nc(N)c2nc(C)sc2n1: 6.87
2) Nc1nc(NCc2ccccc2)nc2sc(-c3ccccc3)nc12: 6.94
3) Cc1nc2c(N)nc(NCCc3cccs3)nc2s1: 7.21
